Can you tell me RBA for the items I'm about to list?
target: Estrogen receptor (Homo sapiens, UniProt P03372); test: Displacement of [3H]estradiol from Estrogen receptor alpha
Sequence (P03372 whole entry): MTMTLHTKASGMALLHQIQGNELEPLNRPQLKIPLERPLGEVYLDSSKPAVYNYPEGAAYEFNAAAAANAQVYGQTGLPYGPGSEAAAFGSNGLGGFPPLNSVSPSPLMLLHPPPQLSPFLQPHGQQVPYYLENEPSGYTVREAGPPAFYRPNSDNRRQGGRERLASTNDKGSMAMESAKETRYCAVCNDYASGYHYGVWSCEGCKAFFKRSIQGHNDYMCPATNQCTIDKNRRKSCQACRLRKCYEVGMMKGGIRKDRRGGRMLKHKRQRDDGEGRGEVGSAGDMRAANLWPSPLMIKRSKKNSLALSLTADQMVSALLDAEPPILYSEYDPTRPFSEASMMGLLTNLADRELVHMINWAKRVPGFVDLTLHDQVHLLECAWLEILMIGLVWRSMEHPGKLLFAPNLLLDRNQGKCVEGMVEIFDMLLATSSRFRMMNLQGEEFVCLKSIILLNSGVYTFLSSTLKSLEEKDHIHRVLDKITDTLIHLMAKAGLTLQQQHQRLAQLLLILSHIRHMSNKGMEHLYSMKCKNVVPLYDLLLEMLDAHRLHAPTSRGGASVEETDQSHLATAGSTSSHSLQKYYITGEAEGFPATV
Report the value in % with no unit label.

Form: compound = CCCc1c(-c2ccc(O)cc2)oc(-c2ccc(O)cc2)c1-c1ccc(OCCN2CCCCC2)cc1 ; RBA = 34

CCc1c(-c2ccc(O)cc2)oc(-c2ccc(O)cc2)c1-c1ccc(OC)cc1 yielded RBA of 2.5

# RBA (compound: Cc1c(-c2ccc(O)cc2)oc(-c2ccc(O)cc2)c1-c1ccc(OCCN2CCCCC2)cc1 ) is 32

Looking up CCc1c(-c2ccc(O)cc2)oc(-c2ccccc2)c1-c1ccc(OCCN2CCCCC2)cc1 , I found its RBA recorded as 3.8

Quick note, RBA for CCc1c(-c2ccc(O)cc2)oc(-c2ccc(O)cc2)c1-c1ccc(OCCN2CCCCC2)cc1 landed at 75

Entry CCc1c(-c2ccc(OCCN3CCCCC3)cc2)oc(-c2ccc(O)cc2)c1-c1ccc(O)cc1 , RBA reported as 0.36

Given item CCc1c(-c2ccccc2)oc(-c2ccc(O)cc2)c1-c1ccc(OCCN2CCCCC2)cc1 , the value recorded as its RBA is 60
